Every entry's value here was drawn from PubChem BioAssay (Tox21).

assayed_target: Cytochrome P450 2C9 (Homo sapiens) (UniProt P11712)
Sequence (P11712 whole entry, looked up): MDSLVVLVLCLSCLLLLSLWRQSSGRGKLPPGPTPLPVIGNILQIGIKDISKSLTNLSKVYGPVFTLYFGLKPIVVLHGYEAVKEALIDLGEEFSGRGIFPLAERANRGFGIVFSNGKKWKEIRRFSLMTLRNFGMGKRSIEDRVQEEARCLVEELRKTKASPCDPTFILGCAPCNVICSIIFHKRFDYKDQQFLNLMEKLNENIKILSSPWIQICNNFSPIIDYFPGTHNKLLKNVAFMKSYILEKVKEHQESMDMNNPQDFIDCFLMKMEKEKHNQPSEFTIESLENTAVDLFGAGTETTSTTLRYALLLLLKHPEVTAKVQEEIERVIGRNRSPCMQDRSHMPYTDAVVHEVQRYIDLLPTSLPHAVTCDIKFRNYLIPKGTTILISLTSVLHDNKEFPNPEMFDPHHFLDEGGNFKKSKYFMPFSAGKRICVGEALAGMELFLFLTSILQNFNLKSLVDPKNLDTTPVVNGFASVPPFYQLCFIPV
assay_explanation: Cytochrome P450 Family 2 Subfamily C Member 9 (CYP2C9) small molecule antagonists: luciferase reporter qHTS assay (AID 1671198); also: nearly all actives have a fitted effect of over 50% in size; also: potency is read from the fitted curve at half-maximal effect
experimental_conditions: P450-Glo CYP2C9 enzyme assay, luciferin luminescence; series mostly up to 53 µM
Results filed as inconclusive are left out. Calls of active or inactive are those of the source. Calls follow the shape of the dose curve; as a rule, active = well fitted inhibition curve with a large enough effect in the repeat runs; inconclusive = weak or mixed curves; inactive = no such curve, though single readings can be large or run the other way.
reported_endpoint: Potency

>  <compound>
CC(C)(C)C1CCCCC1=O (stereo unspecified)

>  <reported_measurement>
inactive

$$$$
>  <compound>
CCOc1ccc(NC(N)=O)cc1

>  <reported_measurement>
inactive

$$$$
>  <compound>
CC1(C)O[C@@H]2C[C@H]3[C@@H]4CCC5=CC(=O)CC[C@]5(C)[C@@]4(F)[C@@H](O)C[C@]3(C)[C@]2(C(=O)CCl)O1

>  <reported_measurement>
15.5 µM (active)

$$$$
>  <compound>
CCCCNC(=S)NCCCC

>  <reported_measurement>
71 µM (active)

$$$$
>  <compound>
Cc1nc(-c2ccccn2)ncc1C(=O)Nn1cc(C)c2cc(F)ccc21

>  <reported_measurement>
1.59 µM (active)

$$$$
>  <compound>
CCCCC1CCC(=O)O1 (stereo unspecified)

>  <reported_measurement>
inactive

$$$$
